biological target: T1, human GPVI extracellular region-human Fc fusion protein (hGPVI-hFc) (human); experiment: ELISA on immobilised hGPVI-hFc; + A450 0.5-1.0, ++ 1.0-2.0, +++ more than 2.0
T1 construct: Expressed in COS-1, purified on Protein A; also called GPVI-HHH-hFc; hGPVIHHH-hFc
T1 sequence (chain, as listed by the source limits assumed): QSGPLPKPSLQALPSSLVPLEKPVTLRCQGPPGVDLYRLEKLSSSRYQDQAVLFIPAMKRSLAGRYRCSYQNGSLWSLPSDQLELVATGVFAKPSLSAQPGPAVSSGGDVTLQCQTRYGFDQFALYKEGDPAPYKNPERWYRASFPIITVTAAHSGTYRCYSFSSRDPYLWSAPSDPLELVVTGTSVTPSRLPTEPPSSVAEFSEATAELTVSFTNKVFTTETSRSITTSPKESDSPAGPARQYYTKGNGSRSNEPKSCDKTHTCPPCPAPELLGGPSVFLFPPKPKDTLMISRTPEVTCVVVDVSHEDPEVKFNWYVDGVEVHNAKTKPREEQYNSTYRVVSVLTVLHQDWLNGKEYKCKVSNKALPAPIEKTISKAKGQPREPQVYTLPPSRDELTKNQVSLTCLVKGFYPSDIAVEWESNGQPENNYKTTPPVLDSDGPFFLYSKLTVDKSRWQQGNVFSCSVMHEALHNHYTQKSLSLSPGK
Recorded measurements of absorbance, one per entry

| Binder | absorbance |
| --- | --- |
| F1249-3-2 (antibody, V domains shown) VH: EVQLVESGGGLVKPGGSLKLSCAASGFTFSSYGMSWVRQTPDKRLEWVATISSGGSYTYYSDSVKGRFTISRDNAKNNLYLQLSSLKSQDTAIYYCARDSGYFDYWGQGTTLTVSS VL: NIVLTQSPASLAVSLGQRATISCRASESVDSYGNSFMHWYQQKPGQPPKLLIYLASNLESGVPARFSGSGSRTDFTLTIDPVEADDAATYYCQQNNEDPRTFGGGTKLEIKR | 0.5 to 1 od |
| F1257-3-1 (antibody, V domains shown) VH: QVTLKESGPGMLQPSKTLSLTCSFSGFSLSTSGMVVSWIRQPSGKSLEWLAAIDWDGDKYYNPSLKSRLTVSKDTSNTQVFLKISSVDIADTATYYCARTPYYGYKEAYYFDYWGQGVKVTVSS VL: DIQMTQSPASLSASLEEIVTITCKASRAIDDYLSWYQQKPGKSPQLLIYDATSLADGVPSRFSGSRSGTQYSLKISRPQVDDSGIYYCLQSYSTPWTFGGGTKLDLKR | > 2 od |

q: Return reported absorbance; argument: F1249-5-1 (antibody, V domains shown) VH: QVQLQQPGAELVKPGASVKLSCKASGYTFTSYWMHWLKQRPGQGLEWIGMIHPNSDITNYNEKFKNKATLTVAKSSSTAYMQLSSLTSEDSAVYYCARLGDYYAMDYWGQGTSVTVSS VL: SIVMTQTPKFLLVSAGDRVTITCKASQSVSNDVTWYQQKPGQSPKLLIYYASNRYTGVPDRFTGSGYGTDFTFTISTVQAEDLAVYFCQQDYSSPPTFGGGTKLEIKR
a: 1 to 2 od
